Value source: patent US20220202799A1

- PROCEDURE TEXT: Plasma concentrations and TK parameters, 72-hour continuous intravenous infusion
- Format: in vivo, Sprague-Dawley rats
- ASSAY SETUP: female, Sprague-Dawley, rat, plasma, iv, 100 mg/kg/day, female Sprague-Dawley rats; 72-hour intravenous infusion at 100 mg/kg/day; time 96 h; read-out: Plasma concentration, Mean
READOUT KIND: concentration at 96 h (ng/mL)
One number for each entry, in ng/mL.

IN: Give the value of concentration at 96 h reported for the following: `O=C(O)c1cc(-c2ccc(C3CCNCC3)cc2)c2ccc(-c3ccc(C(F)(F)F)cc3)cc2c1`
OUT: 281

###

- PROCEDURE TEXT: Plasma concentrations and TK parameters, 72-hour continuous intravenous infusion
- Assay type: in vivo, Sprague-Dawley rats
- ASSAY SETUP: female, Sprague-Dawley, rat, plasma, iv, 100 mg/kg/day, female Sprague-Dawley rats; 72-hour intravenous infusion at 100 mg/kg/day; time 48 h; read-out: Plasma concentration, individual animal
READOUT KIND: concentration at 48 h (ng/mL)
One number for each entry, in ng/mL.

IN: Give the value of concentration at 48 h reported for the following: `O=C(O)c1cc(-c2ccc(C3CCNCC3)cc2)c2ccc(-c3ccc(C(F)(F)F)cc3)cc2c1`
OUT: 6070

###

- PROCEDURE TEXT: Plasma concentrations and TK parameters, 72-hour continuous intravenous infusion
- Type: in vivo, Sprague-Dawley rats
- ASSAY SETUP: male, Sprague-Dawley, rat, plasma, iv, 100 mg/kg, male Sprague-Dawley rats; 72-hour intravenous infusion at 100 mg/kg; time 72 h; read-out: Plasma concentration, individual animal
- Method: The safety and pharmacokinetics of PPTN (KB-1801) in rats receiving continuous intravenous injections of SBECD-containing solutions were analyzed. Three cohorts of six male and six female rats each were given continuous intravenous infusion of PPTN (KB-1801) at 10 mg/kg/day, 30 mg/kg/day or 100 mg/kg/day in a dosing solution containing PPTN at 0.25 mg/mL, 0.75 mg/mL or 2.5 mg/mL and SBECD at about 3.8%. Dosing volume was 40 mIkg/day. [table]
READOUT KIND: concentration at 72 h (ng/mL)
Answers are plain numbers, in ng/mL.

IN: Give the value of concentration at 72 h reported for the following: O=C(O)c1cc(-c2ccc(C3CCNCC3)cc2)c2ccc(-c3ccc(C(F)(F)F)cc3)cc2c1 [KB-1801]
OUT: 11800

###

- PROCEDURE TEXT: Plasma concentrations during 24-hour continuous intravenous infusion
- Assay type: in vivo, Sprague-Dawley rats
- ASSAY SETUP: female, Sprague-Dawley, rat, plasma, iv, 100 mg/kg, female Sprague-Dawley rats; 24-hour intravenous infusion at 100 mg/kg; time 2 h; read-out: Plasma concentration, Mean
READOUT KIND: concentration at 2 h (µg/mL)
Give bare numbers, in µg/mL.

IN: Give the value of concentration at 2 h reported for the following: `O=C(O)c1cc(-c2ccc(C3CCNCC3)cc2)c2ccc(-c3ccc(C(F)(F)F)cc3)cc2c1`
OUT: 2.31

###

- PROCEDURE TEXT: Plasma concentrations and TK parameters, 72-hour continuous intravenous infusion
- Assay type: in vivo, Sprague-Dawley rats
- ASSAY SETUP: male, Sprague-Dawley, rat, plasma, iv, 100 mg/kg, male Sprague-Dawley rats; 72-hour intravenous infusion at 100 mg/kg; time 48 h; read-out: Plasma concentration, Mean
READOUT KIND: concentration at 48 h (ng/mL)
One number for each entry, in ng/mL.

IN: Give the value of concentration at 48 h reported for the following: O=C(O)c1cc(-c2ccc(C3CCNCC3)cc2)c2ccc(-c3ccc(C(F)(F)F)cc3)cc2c1 [KB-1801]
OUT: 7030

###

- PROCEDURE TEXT: Plasma concentrations during 24-hour continuous intravenous infusion
- Assay type: in vivo, Sprague-Dawley rats
- ASSAY SETUP: female, Sprague-Dawley, rat, plasma, iv, 100 mg/kg, female Sprague-Dawley rats; 24-hour intravenous infusion at 100 mg/kg; time 4 h; read-out: Plasma concentration, Mean
READOUT KIND: concentration at 4 h (ng/mL)
Numbers only, in ng/mL.

IN: Give the value of concentration at 4 h reported for the following: O=C(O)c1cc(-c2ccc(C3CCNCC3)cc2)c2ccc(-c3ccc(C(F)(F)F)cc3)cc2c1 [KB-1801]
OUT: 5210

###

- PROCEDURE TEXT: Plasma concentrations and TK parameters, 72-hour continuous intravenous infusion
- Assay type: in vivo, Sprague-Dawley rats
- ASSAY SETUP: female, Sprague-Dawley, rat, plasma, iv, 30 mg/kg/day, female Sprague-Dawley rats; 72-hour intravenous infusion at 30 mg/kg/day; time 24 h; read-out: Plasma concentration, individual animal
READOUT KIND: concentration at 24 h

IN: Give the value of concentration at 24 h reported for the following: O=C(O)c1cc(-c2ccc(C3CCNCC3)cc2)c2ccc(-c3ccc(C(F)(F)F)cc3)cc2c1 [KB-1801]
OUT: 2420 ng/mL

###

- PROCEDURE TEXT: Plasma concentrations during 24-hour continuous intravenous infusion
- Type: in vivo, Sprague-Dawley rats
- ASSAY SETUP: male, Sprague-Dawley, rat, plasma, iv, 30 mg/kg, male Sprague-Dawley rats; 24-hour intravenous infusion at 30 mg/kg; time 4 h; read-out: Plasma concentration, Mean
READOUT KIND: concentration at 4 h (ng/mL)
Answers are plain numbers, in ng/mL.

IN: Give the value of concentration at 4 h reported for the following: `O=C(O)c1cc(-c2ccc(C3CCNCC3)cc2)c2ccc(-c3ccc(C(F)(F)F)cc3)cc2c1`
OUT: 1320

###

- PROCEDURE TEXT: Plasma concentrations and TK parameters, 72-hour continuous intravenous infusion
- Type: in vivo, Sprague-Dawley rats
- ASSAY SETUP: female, Sprague-Dawley, rat, plasma, iv, 30 mg/kg/day, female Sprague-Dawley rats; 72-hour intravenous infusion at 30 mg/kg/day; time 96 h; read-out: Plasma concentration, Mean
READOUT KIND: concentration at 96 h (ng/mL)
Answers are plain numbers, in ng/mL.

IN: Give the value of concentration at 96 h reported for the following: O=C(O)c1cc(-c2ccc(C3CCNCC3)cc2)c2ccc(-c3ccc(C(F)(F)F)cc3)cc2c1 [KB-1801]
OUT: 90.8

###

- PROCEDURE TEXT: Plasma concentrations and TK parameters, 72-hour continuous intravenous infusion
- Format: in vivo, Sprague-Dawley rats
- ASSAY SETUP: female, Sprague-Dawley, rat, plasma, iv, 10 mg/kg/day, female Sprague-Dawley rats; 72-hour intravenous infusion at 10 mg/kg/day; time 96 h; read-out: Plasma concentration, Mean
READOUT KIND: concentration at 96 h (ng/mL)
Give bare numbers, in ng/mL.

IN: Give the value of concentration at 96 h reported for the following: O=C(O)c1cc(-c2ccc(C3CCNCC3)cc2)c2ccc(-c3ccc(C(F)(F)F)cc3)cc2c1 [KB-1801]
OUT: 22.5

###

- PROCEDURE TEXT: Solubility of PPTN in various aqueous and organic solvents
- Format: physicochemical
- ASSAY SETUP: organic solvent or mixture, thermodynamic from solid; propylene glycol; pH ~2; PPTN HCl salt, room temperature; read-out: Solubility Estimate
READOUT KIND: solubility at 24 h

IN: Give the value of solubility at 24 h reported for the following: `O=C(O)c1cc(-c2ccc(C3CCNCC3)cc2)c2ccc(-c3ccc(C(F)(F)F)cc3)cc2c1`
OUT: 40 to 50 mg/mL

###

- PROCEDURE TEXT: Plasma concentrations during 24-hour continuous intravenous infusion
- Format: in vivo, Sprague-Dawley rats
- ASSAY SETUP: female, Sprague-Dawley, rat, plasma, iv, 10 mg/kg, female Sprague-Dawley rats; 24-hour intravenous infusion at 10 mg/kg; time 24 h; read-out: Plasma concentration, individual animal
READOUT KIND: concentration at 24 h (ng/mL)
One number for each entry, in ng/mL.

IN: Give the value of concentration at 24 h reported for the following: `O=C(O)c1cc(-c2ccc(C3CCNCC3)cc2)c2ccc(-c3ccc(C(F)(F)F)cc3)cc2c1`
OUT: 753

###

- PROCEDURE TEXT: Plasma concentrations and TK parameters, 72-hour continuous intravenous infusion
- Type: in vivo, Sprague-Dawley rats
- ASSAY SETUP: male, Sprague-Dawley, rat, plasma, iv, 10 mg/kg/day, male Sprague-Dawley rats; 72-hour intravenous infusion at 10 mg/kg/day; time 96 h; read-out: Plasma concentration, Mean
READOUT KIND: concentration at 96 h (ng/mL)
Answers are plain numbers, in ng/mL.

IN: Give the value of concentration at 96 h reported for the following: `O=C(O)c1cc(-c2ccc(C3CCNCC3)cc2)c2ccc(-c3ccc(C(F)(F)F)cc3)cc2c1`
OUT: 55.1

###

- PROCEDURE TEXT: Plasma concentrations during 24-hour continuous intravenous infusion
- Assay type: in vivo, Sprague-Dawley rats
- ASSAY SETUP: male, Sprague-Dawley, rat, plasma, iv, 10 mg/kg, male Sprague-Dawley rats; 24-hour intravenous infusion at 10 mg/kg; time 1 h; read-out: Plasma concentration, Mean
READOUT KIND: concentration at 1 h (ng/mL)
Answers are plain numbers, in ng/mL.

IN: Give the value of concentration at 1 h reported for the following: O=C(O)c1cc(-c2ccc(C3CCNCC3)cc2)c2ccc(-c3ccc(C(F)(F)F)cc3)cc2c1 [KB-1801]
OUT: 216
